Sourced from patent US20050208041A1

Recorded % activity relative to M3K1 values for a group of binders are listed next.
tested.on: T1, purified recombinant IFNAR-1 extracellular fragment (human, UniProt P17181 28-436)
T1 construct: extracellular domain; also called soluble IFNAR-1; soluble IFNAR
T1 sequence (looked up): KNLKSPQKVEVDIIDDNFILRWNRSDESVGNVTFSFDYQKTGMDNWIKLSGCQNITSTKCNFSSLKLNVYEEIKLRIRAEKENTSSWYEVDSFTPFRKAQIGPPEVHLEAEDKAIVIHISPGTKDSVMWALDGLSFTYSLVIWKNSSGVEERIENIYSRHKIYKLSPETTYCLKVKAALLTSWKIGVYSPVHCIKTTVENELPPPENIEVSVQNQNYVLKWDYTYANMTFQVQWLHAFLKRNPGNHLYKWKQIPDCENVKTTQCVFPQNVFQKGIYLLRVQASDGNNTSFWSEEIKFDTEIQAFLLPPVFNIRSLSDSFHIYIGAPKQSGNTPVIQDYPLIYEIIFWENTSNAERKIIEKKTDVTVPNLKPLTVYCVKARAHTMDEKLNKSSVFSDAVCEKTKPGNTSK
assay.remarks: Biacore, maximal association on IFNAR-1 relative to M3K1
Description: Pools 4 and 11 were selected for further study and the individual antibodies in each pool were produced and expressed separately. The sequences of these individual antibodies were as shown in SEQ ID NO:12 of FIG. 1F and SEQ ID NO: 13 of FIG. 1G. The data is presented as maximal association relative to M3K1. […]
Lab book: enter the figure in %, no units written.

>  <binder>
M3-4 (X = N) heavy chain with K1 light chain (antibody, V domains shown, Position counted within VH CDR3; also called M3-4 N) VH: EVQLLESGGGLVQPGGSLRLSCAFSGFTLSTSGMGIGWVRQAPGKGLEWVAHIWWDDDKYYNPSLKSRFTISRDTSKNTVYLQMNSLRAEDTAVYYCARNYYNYDAWFDYWGQGTLVTVS VL: DIQMTQSPSSLSASVGDRVTITCSASSSINSNHLHWYQQKPGKAPKLLIYRTSILASGVPSRFSGSGSGTSFTLTISSLQPEDFATYYCQQGSNIPFTFGQGTKVEIK

>  <endpoint.name>
% activity relative to M3K1

>  <measure.unit>
%

>  <obs.value>
49

$$$$
>  <binder>
M3-4 (X = C) heavy chain with K1 light chain (antibody, V domains shown, Position counted within VH CDR3; also called M3-4 C) VH: EVQLLESGGGLVQPGGSLRLSCAFSGFTLSTSGMGIGWVRQAPGKGLEWVAHIWWDDDKYYNPSLKSRFTISRDTSKNTVYLQMNSLRAEDTAVYYCARNYYCYDAWFDYWGQGTLVTVS VL: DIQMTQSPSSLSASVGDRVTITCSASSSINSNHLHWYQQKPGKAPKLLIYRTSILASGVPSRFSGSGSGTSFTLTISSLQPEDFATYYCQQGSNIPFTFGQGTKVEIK

>  <endpoint.name>
% activity relative to M3K1

>  <measure.unit>
%

>  <obs.value>
123

$$$$

Now, please, on to the next binder.
Value of % activity relative to M3K1 reported for the binder M3-4 (X = G) heavy chain with K1 light chain (antibody, V domains shown, Position counted within VH CDR3; also called M3-4 G) VH: EVQLLESGGGLVQPGGSLRLSCAFSGFTLSTSGMGIGWVRQAPGKGLEWVAHIWWDDDKYYNPSLKSRFTISRDTSKNTVYLQMNSLRAEDTAVYYCARNYYGYDAWFDYWGQGTLVTVS VL: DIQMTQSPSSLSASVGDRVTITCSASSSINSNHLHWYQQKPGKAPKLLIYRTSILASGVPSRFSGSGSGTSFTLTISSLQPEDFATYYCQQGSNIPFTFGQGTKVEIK is 114
